# Test system: MOLT-4 leukemia
# protocol_description: NCI tumour cell line growth inhibition, 48 h
readout_kind: GI50

Example cases with answers are listed next.
>>> print(df.to_string())
                                   compound  test_result
0     COc1cccc(Cn2c(-c3nonc3N)nc3ccccc32)c1     0.632 µM
1  O=C(N/N=C/c1ccccc1O)C(O)(c1ccccc1)c1ccccc1      4.46 µM
2  COc1cc2c(F)nccc2cc1C(=O)N[C@@H](c1ccc(F)c(Cl)c1)[C@@H]1C[C@@H](O)CN1     0.188 µM
3  C[C@@H](N)C1CCC(C(=O)Nc2ccncc2)CC1 (some centres not stated)     > 100 µM

Report GI50 for every entry below.
1. Cc1ncc(C(=O)Nc2ccc(CN3CCN(C)CC3)c(C(F)(F)F)c2)cc1C#Cc1cnc(N)c2cnccc12
2. COc1ccccc1-c1cc(/C=C2\C(=O)Nc3ncc(Br)cc32)cc(Br)c1O
3. CCN1C(=O)N(CC)C2C1NN=c1s/c(=C\c3ccccc3F)c(=O)n12 (configuration not stated)
4. Cc1nc2ccccn2c1NC(=O)NNC(=S)Nc1ccc(Br)cc1
5. C=C(C)[C@@H]1CC[C@]2(C(N)=O)CC[C@]3(C)[C@H](CC[C@@H]4[C@@]5(C)CC[C@H](O)C(C)(C)[C@@H]5CC[C@]43C)[C@@H]12
6. COC(=O)[C@H]1[C@@H](O)[C@@]2(O)c3c(OC)cc(O[C@@H]4O[C@@H]([C@H](O)CO)CO[C@H]4OC)cc3O[C@@]2(c2ccc(OC)cc2)[C@@H]1c1ccccc1

-- reply
["0.0412 µM", "9.31 µM", "0.0419 µM", "36.7 µM", "3.43 µM", "0.0031 µM"]

Report GI50 for every entry below.
1. O=C(NCCc1ccccc1)C(c1ccccc1)(c1ccccc1)c1ccccc1
2. NC(=O)C1c2ccccc2C=Cc2ccccc21

-- reply
1. > 100 µM
2. > 100 µM
